System: BHT-101 (Thyroid Gland Carcinoma)
Test: Bliss excess, mean over the matrix (fraction); higher = more synergy
Label Criterion met when Bliss excess is at or above 0.03; otherwise label Criterion not met.

COMPOUND	LABEL CLASS
CN(CCO)CC[C@H](CSc1ccccc1)Nc1ccc(S(=O)(=O)NC(=O)c2ccc(N3CCC([C@@H](O)c4ccccc4-c4ccc(Cl)cc4)CC3)cc2)cc1S(=O)(=O)C(F)(F)F [AZD4320] + C1CN(CCC1(C(=O)N[C@@H](CCO)C2=CC=C(C=C2)Cl)N)C3=NC=NC4=C3C=CN4 [Capivasertib] (first compound max 1 µM, 7x7, partner max 3 µM)	Criterion not met
Cc1nc(Nc2ncc(C(=O)Nc3c(C)cccc3Cl)s2)cc(N2CCN(CCO)CC2)n1 [Dasatinib] + CC(=O)Nc1cccc(-n2c(=O)n(C3CC3)c(=O)c3c(Nc4ccc(I)cc4F)n(C)c(=O)c(C)c32)c1 [Trametinib] (first compound max 2 µM, 7x7, partner max 1 µM)	Criterion met
Cn1cnc2c(F)c(Nc3ccc(Br)cc3Cl)c(C(=O)NOCCO)cc21 [Selumetinib] + C=CCn1c(=O)c2cnc(Nc3ccc(N4CCN(C)CC4)cc3)nc2n1-c1cccc(C(C)(C)O)n1 [AZD1775] (first compound max 10 µM, partner max 1 µM)	Criterion not met
C[C@@H]1COCCN1c1cc(C2([S@](C)(=N)=O)CC2)nc(-c2ccnc3[nH]ccc23)n1 [AZD6738] + O=C(c1cc(Cc2n[nH]c(=O)c3ccccc23)ccc1F)N1CCN(C(=O)C2CC2)CC1 [Olaparib] (first compound max 10 µM, 7x7, partner max 10 µM)	Criterion not met
Cn1cnc2c(F)c(Nc3ccc(Br)cc3Cl)c(C(=O)NOCCO)cc21 [Selumetinib] + CC(C)n1c(=O)n(C)c2cnc3cc(F)c(-c4ccc(OCCCN5CCCCC5)nc4)cc3c21 [AZD1390] (first compound max 10 µM, 7x7, partner max 0.3 µM)	Criterion not met

-- ask Check this compound for Bliss excess at or above 0.03: CC(=O)Nc1cccc(-n2c(=O)n(C3CC3)c(=O)c3c(Nc4ccc(I)cc4F)n(C)c(=O)c(C)c32)c1 [Trametinib] + Cc1nc(-c2cn3c(n2)-c2ccc(-c4cnn(C(C)(C)C(N)=O)c4)cc2OCC3)n(C(C)C)n1 [Taselisib] (first compound max 1 µM, 7x7, partner max 10 µM)
-- reply Criterion met

====

# Lookup of reported combination Emax keyed by entry
System: BHT-101 (Thyroid Gland Carcinoma)
Test: combination Emax (second highest fraction inhibited in the dose matrix, 72 h); higher = more inhibition; extreme values may be limits of the assay
Reply with the value as a number alone.

Reference set (2 entries):
COMPOUND	MEASURED NUMBER
Cc1c2c(nn1C)CSCc1cc(n(C)n1)CSc1cc(c3ccccc3c1)OCCCc1c(C(=O)O)n(C)c3c-2c(Cl)ccc13 [AZD5991] + CN(C)CCCOc1ccc(-c2ccc3ncc4c(c3c2)n(C2CCOCC2)c(=O)n4C)cn1 [AZD0156] (first compound max 1 µM, 7x7, partner max 1 µM)	0.659
CN(C)CCCOc1ccc(-c2ccc3ncc4c(c3c2)n(C2CCOCC2)c(=O)n4C)cn1 [AZD0156] + O=C(c1cc(Cc2n[nH]c(=O)c3ccccc23)ccc1F)N1CCN(C(=O)C2CC2)CC1 [Olaparib] (first compound max 3 µM, partner max 3 µM)	0.362

-- ask Need combination Emax, item CC1(C)CCC(CN2CCN(c3ccc(C(=O)NS(=O)(=O)c4ccc(NCC5CCOCC5)c([N+](=O)[O-])c4)c(Oc4cnc5[nH]ccc5c4)c3)CC2)=C(c2ccc(Cl)cc2)C1 [Venetoclax] + CN(C)CCCOc1ccc(-c2ccc3ncc4c(c3c2)n(C2CCOCC2)c(=O)n4C)cn1 [AZD0156] (first compound max 1 µM, 7x7, partner max 1 µM)
-- reply 0.246
